Each recorded value in this set is attributed to ChEMBL document CHEMBL1127827.

Assay: Half-life measured in in vitro Cathepsin B assay in human plasma
Format: ADME, cell-free
Assay Readout: half-life

Could you share which half-life value was measured for Cc1cc(C)c(C(=O)OCC(=O)[C@H](CCCCN)NC(=O)[C@H](Cc2ccccc2)NC(=O)OCc2ccccc2)c(C)c1.Cl ?
> 33 h

====

System: Rattus norvegicus
Assay: Percentage of control was measured on rat liver cathepsin B by a single oral dose of 50 mg/kg
Format: functional
For each of the compounds below, state its Control.
State just the number; it will be interpreted in %.

Observed Control on Rattus norvegicus for COc1ccc(C[C@H](NC(=O)OCc2ccccc2)C(=O)N[C@@H](CCCCN)C(=O)COC(=O)c2c(C)cc(C)cc2C)cc1.O=C(O)C(F)(F)F , please.
30

Write down the reported Control of Cc1cc(C)c(C(=O)OCC(=O)[C@H](CCCCN)NC(=O)[C@H](Cc2ccccc2)NC(=O)OCc2ccccc2)c(C)c1.Cl , test system: Rattus norvegicus.
11

Recorded Control for Cc1c(C)c(C(=O)OCC(=O)[C@H](C)NC(=O)[C@H](Cc2ccccc2)NC(=O)OCc2ccccc2)c(C)c(C)c1C(=O)O with Rattus norvegicus, please?
79

Request body: readout Control, system Rattus norvegicus, query CC(NC(=O)[C@H](Cc1ccccc1)NC(=O)OCc1ccccc1)C(=O)CF (stereo not given in full) . Return the value.
7

Query the reported Control for Rattus norvegicus; item: Cc1cc(C)c(C(=O)OCC(=O)CNC(=O)[C@H](Cc2ccccc2)NC(=O)CCC(=O)O)c(C)c1
49

====

Target: Cathepsin B (Bos taurus) (UniProt P07688)
Test: Rate of cathepsin B inactivation in vitro in bovine spleen
Format: tissue-based
Assay Readout: k/K (M⁻¹ s⁻¹)
Form entry: value (M⁻¹ s⁻¹) — number only.

Field request: k/K | item: Cc1cc(C)c(C(=O)OCC(=O)[C@@H](C)NC(=O)[C@H](Cc2ccccc2)NC(=O)c2ccc(C(=O)NS(=O)(=O)c3ccccc3)cc2)c(C)c1
2500

Data request, read-out k/K, for Cc1c(C)c(C(=O)OCC(=O)[C@H](C)NC(=O)[C@H](Cc2ccccc2)NC(=O)OCc2ccccc2)c(C)c(C)c1C(=O)O
63000

Can you share its k/K? I mean this molecule: Cc1cc(C)c(C(=O)OCC(=O)[C@@H](C)NC(=O)[C@H](Cc2ccccc2)NC(=O)CCC(=O)O)c(C)c1
1000

Can you look up the measured k/K of COC(=O)CCC(=O)N[C@@H](Cc1ccccc1)C(=O)N[C@H](C)C(=O)COC(=O)c1c(C)cc(C)cc1C for me?
4000

Can you look up the measured k/K of Cc1cc(C)c(C(=O)OCC(=O)CNC(=O)[C@H](Cc2ccccc2)NC(=O)CCC(=O)O)c(C)c1 for me?
700

Fill in the blank: the reported k/K of Cc1cc(C)c(C(=O)OCC(=O)[C@@H](C)NC(=O)[C@H](Cc2ccccc2)NC(=O)OCc2ccccc2)c(C)c1 is ____.
14000

Please give the measured k/K for this molecule: Cc1cc(C)c(C(=O)OCC(=O)CNC(=O)[C@H](Cc2ccccc2)NC(=O)OCc2ccccc2)c(C)c1
9900

Can you look up the measured k/K of CC(NC(=O)[C@H](Cc1ccccc1)NC(=O)OCc1ccccc1)C(=O)CF (stereo not given in full) for me?
21000

May I ask what k/K has been recorded for COc1ccc(C[C@H](NC(=O)OCc2ccccc2)C(=O)N[C@@H](CCCCN)C(=O)COC(=O)c2c(C)cc(C)cc2C)cc1.O=C(O)C(F)(F)F ?
170000

# query: k/K of entry Cc1cc(C)c(C(=O)OCC(=O)[C@H](CCCCN)NC(=O)[C@H](Cc2ccccc2)NC(=O)OCc2ccccc2)c(C)c1.Cl
230000

====

Assay: Half-life measured in rat plasma
Assay Readout: half-life (h)
The response must be a number in h with no trailing unit.

Tell me the measured half-life of Cc1cc(C)c(C(=O)OCC(=O)[C@H](CCCCN)NC(=O)[C@H](Cc2ccccc2)NC(=O)OCc2ccccc2)c(C)c1.Cl , please.
1.6
